# experimentalDetails: clinical
# Design: species or system human
# conditionSummary: human, in vivo, po, 800 mg
quantityMeasured: Cmax (ng/mL)
All answers are understood in ng/mL, so give the number only.

Cmax measured on CNC(=O)c1cc(Oc2ccc3nc(N[C@@H]4CCCC[C@H]4O)sc3c2)ccn1 [BLZ945] = 22700

----------
# experimentalDetails: Blood and spinal cord exposure, 8-week SOD1G93A efficacy study
# Type: in vivo, SOD1G93A mouse
# conditionSummary: SOD1G93A, mouse, blood, 170 mg/kg, 170 mg/kg CONT, 3 h post-dose; read-out: Blood conc.
quantityMeasured: concentration at 3 h (µM)
All answers are understood in µM, so give the number only.

concentration at 3 h measured on CNC(=O)c1cc(Oc2ccc3nc(N[C@@H]4CCCC[C@H]4O)sc3c2)ccn1 = 66.3
